Data origin: patent US20170260185A1

targetOrSystem: human serotonin transporter (SERT) (Homo sapiens)
Construct: expressed in transfected cells; host or cells: CHO (hSERT-CHO), membrane preparation
Sequence (P31645 whole entry): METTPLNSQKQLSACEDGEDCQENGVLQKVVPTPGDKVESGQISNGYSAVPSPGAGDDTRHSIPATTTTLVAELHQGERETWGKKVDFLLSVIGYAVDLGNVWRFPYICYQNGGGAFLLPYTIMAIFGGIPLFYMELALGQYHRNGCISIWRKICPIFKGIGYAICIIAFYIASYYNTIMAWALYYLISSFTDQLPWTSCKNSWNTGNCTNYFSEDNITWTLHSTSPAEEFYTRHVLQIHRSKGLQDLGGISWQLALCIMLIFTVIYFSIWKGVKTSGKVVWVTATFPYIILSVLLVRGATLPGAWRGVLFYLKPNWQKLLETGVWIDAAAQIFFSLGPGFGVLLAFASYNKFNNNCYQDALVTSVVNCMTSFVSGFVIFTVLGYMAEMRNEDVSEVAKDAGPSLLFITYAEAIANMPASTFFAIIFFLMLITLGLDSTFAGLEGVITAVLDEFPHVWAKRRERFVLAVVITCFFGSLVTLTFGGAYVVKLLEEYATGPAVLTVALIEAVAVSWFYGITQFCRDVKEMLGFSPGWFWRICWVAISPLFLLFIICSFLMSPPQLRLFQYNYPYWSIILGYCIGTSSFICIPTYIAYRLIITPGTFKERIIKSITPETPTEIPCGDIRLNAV
measurementProtocol: Scintillation Proximity Assay (SPA) competition binding, [3H]citalopram, hSERT-CHO membranes
The reader will find reported IC50 values listed item by item below.
Provide the reading as a plain figure in µM.

Ask: I am curious: what IC50 value has been reported for O=C1CCNC[C@]12CCN(C(c1ccc(F)cc1)c1ccc(F)cc1)C2 (single isomer, unassigned) [Example 8] ?
Reply: 7.41

Ask: I am curious: what IC50 value has been reported for CN1CCC(O)C2(CCN(C(c3ccc(F)cc3)c3ccc(F)cc3)C2)C1 (centres unmarked) ?
Reply: 18.6

Ask: I am curious: what IC50 value has been reported for O=C1CCNC[C@@]12CCN(C(c1ccc(F)cc1)c1ccc(F)cc1)C2 (single isomer, unassigned) [Example 7] ?
Reply: 14.1

Ask: I am curious: what IC50 value has been reported for `Fc1ccc(C(c2ccc(F)cc2)N2CCCC3(CCNCC3)C2)cc1` ?
Reply: 1.58

Ask: I am curious: what IC50 value has been reported for O=C1CCNCC12CCN(C(c1ccc(Cl)cc1)c1ccc(Cl)cc1)C2 (centres unmarked) ?
Reply: 1.78

* * *

The reader will find reported pIC50 values listed item by item below.
targetOrSystem: human norepinephrine transporter (NET) (Homo sapiens)
Construct: expressed in transfected cells; host or cells: CHO (hNET-CHO), membrane preparation
Sequence (P23975 whole entry): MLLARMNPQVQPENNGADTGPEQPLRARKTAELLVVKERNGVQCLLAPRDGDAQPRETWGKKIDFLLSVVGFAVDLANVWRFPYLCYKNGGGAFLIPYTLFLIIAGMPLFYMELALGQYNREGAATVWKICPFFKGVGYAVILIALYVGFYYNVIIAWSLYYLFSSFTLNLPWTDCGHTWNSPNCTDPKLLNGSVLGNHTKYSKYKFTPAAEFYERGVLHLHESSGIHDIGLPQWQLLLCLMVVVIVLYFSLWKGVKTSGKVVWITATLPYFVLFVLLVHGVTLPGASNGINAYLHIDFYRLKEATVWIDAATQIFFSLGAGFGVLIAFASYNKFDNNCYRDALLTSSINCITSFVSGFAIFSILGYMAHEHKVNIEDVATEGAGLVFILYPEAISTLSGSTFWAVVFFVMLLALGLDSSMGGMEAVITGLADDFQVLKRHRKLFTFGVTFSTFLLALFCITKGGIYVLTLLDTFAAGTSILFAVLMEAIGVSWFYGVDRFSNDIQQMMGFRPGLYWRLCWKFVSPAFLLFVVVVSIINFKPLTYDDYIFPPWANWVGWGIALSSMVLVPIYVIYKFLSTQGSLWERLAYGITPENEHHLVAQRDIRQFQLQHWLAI
measurementProtocol: Scintillation Proximity Assay (SPA) competition binding, [3H]nisoxetine, hNET-CHO membranes
Counter-ions that a name gives are not always drawn.
Please keep in mind that pIC50 is minus log10 of the molar concentration; only the number is needed.

Known pIC50 results, listed for orientation:
molecule="Fc1ccc(C(c2ccc(F)cc2)N2CCC3(CNCCO3)C2)cc1 (stereo not shown)" valuereported=5.86
molecule="O=C1CCNC[C@@]12CCN(C(c1ccc(F)cc1)c1ccc(F)cc1)C2 (single isomer, unassigned) [Example 9, dihydrochloride salt]" valuereported=5.62
molecule="O=C1CCNC[C@@]12CCN(C(c1ccc(F)cc1)c1ccc(F)cc1)C2 (single isomer, unassigned) [Example 7]" valuereported=5.67
molecule="Fc1ccc(C(c2ccc(F)cc2)N2CCC3(CNCCC34OCCO4)C2)cc1 (stereo not shown)" valuereported=5.35
molecule="FC1=CCNC[C@]12CCN(C(c1ccc(F)cc1)c1ccc(F)cc1)C2 (single isomer, unassigned)" valuereported=5.73

Ask: I am curious: what pIC50 value has been reported for O=C1CCNC[C@]12CCN(C(c1ccc(F)cc1)c1ccc(F)cc1)C2 (single isomer, unassigned) [Example 10, dihydrochloride salt] ?
Reply: 5.19

Ask: I am curious: what pIC50 value has been reported for CO/N=C1\CCNC[C@]12CCN(C(c1ccc(F)cc1)c1ccc(F)cc1)C2 (single isomer, unassigned) ?
Reply: 5.70

* * *

human serotonin transporter (SERT) (Homo sapiens) data, read-out IC50
Provide the reading as a plain figure in µM.

Known IC50 results, listed for orientation:
compound="Fc1ccc(C(c2ccc(F)cc2)N2CCC3(CCNCC34OCCO4)C2)cc1 (stereo not drawn) [Example 20]" targetorsystem="human serotonin transporter (SERT) (Homo sapiens)" reportedendpoint=IC50 valuereported=2.09
compound="ON=C1CCNCC12CCN(C(c1ccc(F)cc1)c1ccc(F)cc1)C2 (single isomer, unassigned) [Example 16]" targetorsystem="human serotonin transporter (SERT) (Homo sapiens)" reportedendpoint=IC50 valuereported=6.61

Ask: I am curious: what IC50 value has been reported for O=C1CCNCC12CCN(C(c1ccc(F)cc1)c1ccc(F)cc1)C2 (stereo not drawn) [Example 1] ?
Reply: 22.4
